Cited source for all entries: PubChem BioAssay (Tox21)

# TEST: qHTS assay to test for compound auto fluorescence at 590 nm (red) in HEK293 cells (AID 720679)
# EXPERIMENTAL_SETUP: red autofluorescence 540/590 nm; series mostly up to 46 µM
Active and inactive are the calls of the source. The call rests on the fitted dose curve; in most records, active means well fitted curve in the direction sought with a large enough effect in the repeat runs; inconclusive means weak or mixed curves; inactive means flat fitted curve, though single readings scatter.

SMILES_RECORD: CCC(=O)O[C@H]1[C@@H](N2CCCCC2)C[C@H]2[C@@H]3CC[C@H]4C[C@H](OC(C)=O)[C@@H](N5CCCCC5)C[C@]4(C)[C@H]3CC[C@@]21C
outcome: inactive
//
SMILES_RECORD: COc1cc(C[C@H](C)N)c(OC)cc1Br
outcome: inactive
//
SMILES_RECORD: Cc1ccc2c(c1)[C@]13CCCC[C@@H]1[C@H](C2)N(C)CC3
outcome: inactive
//
SMILES_RECORD: C#C[C@]1(OC(=O)CCCCCC)CC[C@H]2[C@@H]3CCC4=CC(=O)CC[C@@H]4[C@H]3CC[C@@]21C
outcome: inactive
//
SMILES_RECORD: C[C@]12CC[C@H]3[C@@H](CCC4=CC(=O)CC[C@@]43C)[C@@H]1CC[C@@H]2OC(=O)CCc1ccccc1
outcome: inactive
//
SMILES_RECORD: CCC(=O)O[C@](Cc1ccccc1)(c1ccccc1)[C@H](C)CN(C)C
outcome: inactive
